Target: PI3Kβ (Homo sapiens, UniProt P42338)
Sequence (P42338 whole entry): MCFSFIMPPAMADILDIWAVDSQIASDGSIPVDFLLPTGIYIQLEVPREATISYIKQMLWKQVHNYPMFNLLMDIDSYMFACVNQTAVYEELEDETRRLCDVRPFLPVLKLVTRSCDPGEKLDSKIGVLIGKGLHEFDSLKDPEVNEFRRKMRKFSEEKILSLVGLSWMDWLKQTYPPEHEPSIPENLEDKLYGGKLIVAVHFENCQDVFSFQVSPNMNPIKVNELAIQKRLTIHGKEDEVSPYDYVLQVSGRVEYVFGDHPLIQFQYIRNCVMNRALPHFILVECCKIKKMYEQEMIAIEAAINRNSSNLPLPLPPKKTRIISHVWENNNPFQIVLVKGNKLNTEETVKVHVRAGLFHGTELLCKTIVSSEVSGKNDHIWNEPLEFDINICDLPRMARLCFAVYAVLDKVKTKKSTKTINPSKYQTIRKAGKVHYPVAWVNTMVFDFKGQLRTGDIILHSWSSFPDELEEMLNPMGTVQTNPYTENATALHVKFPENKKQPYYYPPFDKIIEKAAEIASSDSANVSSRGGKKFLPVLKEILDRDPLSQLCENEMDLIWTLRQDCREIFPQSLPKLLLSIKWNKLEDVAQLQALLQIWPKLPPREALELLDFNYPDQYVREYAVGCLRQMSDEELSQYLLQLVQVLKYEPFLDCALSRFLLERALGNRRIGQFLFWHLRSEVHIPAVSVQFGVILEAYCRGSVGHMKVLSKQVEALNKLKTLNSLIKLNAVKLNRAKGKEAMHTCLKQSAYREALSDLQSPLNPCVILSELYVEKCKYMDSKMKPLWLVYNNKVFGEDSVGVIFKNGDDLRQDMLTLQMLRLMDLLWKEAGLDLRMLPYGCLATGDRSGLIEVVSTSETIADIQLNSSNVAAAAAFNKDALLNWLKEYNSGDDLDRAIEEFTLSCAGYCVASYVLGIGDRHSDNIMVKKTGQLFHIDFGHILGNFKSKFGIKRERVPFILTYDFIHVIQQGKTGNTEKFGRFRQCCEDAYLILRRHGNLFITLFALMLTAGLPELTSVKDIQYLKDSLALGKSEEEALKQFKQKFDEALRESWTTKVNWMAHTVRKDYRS
Sequence (P27986 whole entry partner): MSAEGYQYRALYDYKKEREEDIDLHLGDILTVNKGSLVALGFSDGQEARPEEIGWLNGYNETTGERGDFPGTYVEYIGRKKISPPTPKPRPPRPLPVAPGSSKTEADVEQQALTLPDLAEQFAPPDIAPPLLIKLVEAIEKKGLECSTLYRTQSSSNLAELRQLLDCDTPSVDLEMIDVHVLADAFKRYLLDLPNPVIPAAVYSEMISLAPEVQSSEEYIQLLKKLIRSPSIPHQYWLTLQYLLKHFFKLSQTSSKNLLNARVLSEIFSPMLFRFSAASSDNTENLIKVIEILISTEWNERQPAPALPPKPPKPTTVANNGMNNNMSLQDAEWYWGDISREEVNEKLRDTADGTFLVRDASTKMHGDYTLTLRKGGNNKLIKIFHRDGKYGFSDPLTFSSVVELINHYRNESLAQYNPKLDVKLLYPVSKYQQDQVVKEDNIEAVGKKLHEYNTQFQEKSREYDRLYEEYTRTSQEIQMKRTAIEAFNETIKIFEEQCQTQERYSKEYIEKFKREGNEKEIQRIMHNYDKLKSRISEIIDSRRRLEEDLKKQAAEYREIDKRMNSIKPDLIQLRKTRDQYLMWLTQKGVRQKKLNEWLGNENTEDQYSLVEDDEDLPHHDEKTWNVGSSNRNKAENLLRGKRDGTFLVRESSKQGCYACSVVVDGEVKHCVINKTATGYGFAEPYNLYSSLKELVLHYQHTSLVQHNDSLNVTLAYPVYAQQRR
Test: In vitro determination of the PI3K enzyme inhibitory activity in the cell free assay (ADP-Glo Kinase Assay), PI3Kβ
Details: ATP 100 μM, read-out: PI3K beta inhibition
Procedure: In vitro Determination of the PI3K Enzyme Inhibitory Activity in the Cell Free Assay Human recombinant proteins PI3Kα, PI3Kβ, PI3Kγ and PI3Kδ were purchased from Millipore Ltd (Billerica, Mass.). Compounds were dissolved at 0.5 mM in DMSO and were tested at different concentrations for their activity against PI3Ks using the ADP-Glo™ Kinase Assay (Promega, Madison Wis.) according to the manufacturer's instructions. […]
pIC50: −log10 of the molar value.
assay.readout: pIC50

Examples with answers:
molecule	test.target	reading
CC(c1cc2ccccn2c1-c1cc(CN2CCOCC2)ccn1)n1nc(-c2cc(O)cc(F)c2)c2c(N)ncnc21 (stereo not shown) [Example 111]	PI3Kβ (Homo sapiens, UniProt P42338)	6.00 to 8.00
C[C@H](c1cc2ccccn2c1-c1ccc(CN(CCO)CCO)cn1)n1nc(-c2cc(O)cc(F)c2)c2c(N)ncnc21 (single isomer, unassigned) [Example 117b]	PI3Kβ (Homo sapiens, UniProt P42338)	6.00 to 8.00
CC(c1cc2ccccn2c1-c1ccc(=O)n(CCN2CCCC2)n1)n1nc(-c2cc(O)cc(F)c2)c2c(N)ncnc21 (stereo not shown) [Example 134]	PI3Kβ (Homo sapiens, UniProt P42338)	6.00 to 8.00

Query :: Would you kindly share the measured pIC50 for Cc1ccccc1-c1c(CNc2ncnc(N)c2C#N)cn2ccccc12 [Example 29] ?
Result :: < 6.00

###

target: PI3Kα (Homo sapiens); assay: In vitro determination of the PI3K enzyme inhibitory activity in the cell free assay (ADP-Glo Kinase Assay), PI3Kα; settings: ATP 50 μM, read-out: PI3K alpha inhibition
Sequence (P42336 whole entry): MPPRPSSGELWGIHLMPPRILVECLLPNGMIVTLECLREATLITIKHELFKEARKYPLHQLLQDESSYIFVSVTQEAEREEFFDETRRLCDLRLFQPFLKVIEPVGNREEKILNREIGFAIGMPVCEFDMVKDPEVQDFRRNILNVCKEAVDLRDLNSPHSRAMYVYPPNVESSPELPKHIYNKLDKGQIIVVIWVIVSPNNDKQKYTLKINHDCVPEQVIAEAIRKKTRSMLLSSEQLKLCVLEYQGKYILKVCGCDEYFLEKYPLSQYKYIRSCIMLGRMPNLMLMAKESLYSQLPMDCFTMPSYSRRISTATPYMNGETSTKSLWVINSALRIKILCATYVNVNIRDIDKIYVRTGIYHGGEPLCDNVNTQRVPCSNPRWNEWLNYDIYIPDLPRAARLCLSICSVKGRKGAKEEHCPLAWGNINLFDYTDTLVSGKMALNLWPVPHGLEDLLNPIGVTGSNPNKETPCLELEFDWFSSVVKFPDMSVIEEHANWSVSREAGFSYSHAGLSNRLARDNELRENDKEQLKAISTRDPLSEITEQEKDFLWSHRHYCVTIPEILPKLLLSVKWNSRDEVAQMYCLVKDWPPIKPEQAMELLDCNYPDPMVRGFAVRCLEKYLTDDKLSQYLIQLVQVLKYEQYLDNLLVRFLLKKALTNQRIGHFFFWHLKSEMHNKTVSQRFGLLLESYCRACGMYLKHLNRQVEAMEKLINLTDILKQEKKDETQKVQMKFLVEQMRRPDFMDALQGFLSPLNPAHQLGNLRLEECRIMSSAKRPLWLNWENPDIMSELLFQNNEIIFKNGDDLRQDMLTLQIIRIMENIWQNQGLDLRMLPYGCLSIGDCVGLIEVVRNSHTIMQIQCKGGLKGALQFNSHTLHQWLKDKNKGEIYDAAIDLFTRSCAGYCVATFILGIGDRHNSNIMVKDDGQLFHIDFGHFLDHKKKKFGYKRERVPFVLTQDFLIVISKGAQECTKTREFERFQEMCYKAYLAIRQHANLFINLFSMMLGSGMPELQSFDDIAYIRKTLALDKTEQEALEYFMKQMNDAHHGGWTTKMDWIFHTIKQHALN
Sequence (P27986 whole entry partner): as the sequence (P27986 whole entry partner) above
pIC50: −log10 of the molar value.
assay.readout: pIC50

These solved cases illustrate the format of a correct answer.
compound	pIC50
CC(c1cc2ccccn2c1-c1ccc(CN2CCOCC2)cn1)n1nc(-c2cc(O)cc(F)c2)c2c(N)ncnc21 (centres unmarked)	< 6.00
CC(NC(=O)c1nccnc1N)c1cc2ccccn2c1-c1ccccn1 (centres unmarked)	< 6.00
CC(c1cc2ccccn2c1-c1cccc(C2CCCN2C)c1)n1nc(-c2cc(O)cc(F)c2)c2c(N)ncnc21 (mixture of isomers)	< 6.00
Cc1ccccc1-c1c(CNc2ncnc(N)c2C#N)cc2ccccn12	< 6.00
Cc1ccccc1-c1c(Cn2cnc3c(N)ncnc32)cn2ccccc12	< 6.00

Query :: Which pIC50 is listed for CC(c1cc2ccccn2c1-c1cc(CN2CCN(C)CC2)ccn1)n1nc(-c2cc(O)cc(F)c2)c2c(N)ncnc21 (centres unmarked) ?
Result :: 6.00 to 8.00

Query :: Okay, and CC(Nc1ncnc(N)c1C#N)c1cc2ccccn2c1-c1cccnc1 (centres unmarked) ?
Result :: < 6.00

Query :: What would you report for CC(c1cc2ccccn2c1-c1cc(CN2CCOCC2)ccn1)n1nc(-c2cc(O)cc(F)c2)c2c(N)ncnc21 (centres unmarked) ?
Result :: < 6.00

###

molecular target: PI3Kδ (Homo sapiens, UniProt O00329); assay: In vitro determination of the PI3K enzyme inhibitory activity in the cell free assay (ADP-Glo Kinase Assay), PI3Kδ; settings: ATP 80 μM, read-out: PI3K delta inhibition
Sequence (O00329 whole entry, one chain of several): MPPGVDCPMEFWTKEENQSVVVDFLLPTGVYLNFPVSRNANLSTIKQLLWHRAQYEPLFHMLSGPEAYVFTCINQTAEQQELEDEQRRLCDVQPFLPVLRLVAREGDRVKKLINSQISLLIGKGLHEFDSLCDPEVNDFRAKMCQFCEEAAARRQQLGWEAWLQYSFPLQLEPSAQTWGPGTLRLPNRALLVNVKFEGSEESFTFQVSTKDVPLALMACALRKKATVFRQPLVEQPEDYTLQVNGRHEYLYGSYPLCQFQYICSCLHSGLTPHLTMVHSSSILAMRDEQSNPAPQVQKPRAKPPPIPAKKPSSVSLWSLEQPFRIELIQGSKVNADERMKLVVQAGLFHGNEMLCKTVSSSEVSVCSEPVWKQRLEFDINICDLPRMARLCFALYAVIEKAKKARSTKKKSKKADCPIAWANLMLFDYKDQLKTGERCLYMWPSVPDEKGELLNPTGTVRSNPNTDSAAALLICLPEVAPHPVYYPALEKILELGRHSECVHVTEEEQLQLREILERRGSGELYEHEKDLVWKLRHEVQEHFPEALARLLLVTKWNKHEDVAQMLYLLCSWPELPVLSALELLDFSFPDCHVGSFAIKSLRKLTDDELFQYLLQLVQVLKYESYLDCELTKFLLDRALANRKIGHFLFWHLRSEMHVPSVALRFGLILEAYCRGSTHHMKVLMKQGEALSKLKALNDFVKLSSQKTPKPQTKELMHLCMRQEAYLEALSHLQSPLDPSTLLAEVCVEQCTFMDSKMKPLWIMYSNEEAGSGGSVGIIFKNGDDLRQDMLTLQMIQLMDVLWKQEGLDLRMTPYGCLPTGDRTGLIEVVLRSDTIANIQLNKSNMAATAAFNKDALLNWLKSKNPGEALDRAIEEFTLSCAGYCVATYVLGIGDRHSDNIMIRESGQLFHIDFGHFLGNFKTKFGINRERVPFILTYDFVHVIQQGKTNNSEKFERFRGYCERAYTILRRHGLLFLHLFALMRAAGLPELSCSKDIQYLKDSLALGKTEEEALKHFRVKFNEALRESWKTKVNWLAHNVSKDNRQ
Each item that follows carries a reported IC50.

Known IC50 results, listed for orientation:
compound	reading
CC(c1cc2cccnn2c1-c1cccc(CN(C)C)c1)n1nc(-c2cc(O)cc(F)c2)c2c(N)ncnc21 (stereo not drawn)	10 to 1000 nM
CC(c1cc2ccccn2c1-c1ccn(CCN(C)C)c(=O)c1)n1nc(-c2cc(O)cc(F)c2)c2c(N)ncnc21 (single isomer, unassigned) [Example 133a]	10 to 1000 nM
CC(c1c(C#N)c2ccccn2c1-c1ccccn1)n1nc(-c2cc(O)cc(F)c2)c2c(N)ncnc21 (stereo not drawn)	< 10 nM
CC(Nc1ncnc(N)c1Br)c1cc2ccccn2c1-c1ccccn1 (stereo not drawn)	10 to 1000 nM
CC(c1cc2ccccn2c1-c1cscn1)n1nc(-c2cc(O)cc(F)c2)c2c(N)ncnc21 (stereo not drawn)	10 to 1000 nM
CC(Nc1ncnc(N)c1C#N)c1cc2c(F)cccn2c1-c1ccccn1 (stereo not drawn)	< 10 nM

// next item, IC50 requested
Query :: So what's the measured IC50 for this one? CC(c1cc2ccccn2c1-c1ccccn1)n1nc(-c2cc(F)cc(-c3nnn[nH]3)c2)c2c(N)ncnc21 (stereo not drawn)
Result :: > 1000 nM

###

Listing: IC50 of selected compounds
target: UniProtKB P42338; test: In vitro determination of the PI3K enzyme inhibitory activity in the cell free assay (ADP-Glo Kinase Assay), PI3Kβ; settings: ATP 100 μM, read-out: PI3K beta inhibition
Counter-ions that a name gives are not always drawn.

Worked cases, answers included:
compound	IC50
CC(c1cc2ccccn2c1-c1ccccn1)n1nc(-c2cc(O)cc(C#N)c2)c2c(N)ncnc21 (centres unmarked)	10 to 1000 nM
c1ccc(-c2c(CNc3ncnc4[nH]cnc34)cn3ccccc23)nc1	> 1000 nM
C[C@H](c1cc2ccccn2c1-c1cccc(CN(C)C)c1)n1nc(-c2cc(O)cc(F)c2)c2c(N)ncnc21 (single isomer, unassigned) [Example 93b]	10 to 1000 nM
CC(c1cc2ccccn2c1-c1ccc(CN2CCOCC2)cc1)n1nc(-c2cc(O)cc(F)c2)c2c(N)ncnc21 (centres unmarked)	> 1000 nM
CC(c1cc2ccccn2c1-c1ccc(CN2CCOCC2)cn1)n1nc(-c2cc(O)cc(F)c2)c2c(N)ncnc21 (centres unmarked)	10 to 1000 nM
C[C@@H](c1cc2ccccn2c1-c1ccccn1)n1nc(-c2cc(O)cc(F)c2)c2c(N)ncnc21 (single isomer, unassigned) [Example 80]	10 to 1000 nM
CC(c1cc2ccccn2c1-c1ccn(CCN2CCOCC2)c(=O)c1)n1nc(-c2cncc(O)c2)c2c(N)ncnc21 (centres unmarked)	10 to 1000 nM
Fc1cccc(-c2c(CNc3ncnc4[nH]cnc34)cc3ccccn23)c1	> 1000 nM

Query :: Recorded IC50 for CC(Nc1ncnc(N)c1C(=O)O)c1cc2ccccn2c1-c1ccccn1 (centres unmarked) [Example 53, formate] , please?
Result :: > 1000 nM

Query :: Could you do the same for CC(c1c(C#N)c2ccccn2c1-c1cccc(CN(C)C)c1)n1nc(-c2cc(O)cc(F)c2)c2c(N)ncnc21 (centres unmarked) , please?
Result :: 10 to 1000 nM

Query :: Subsequent entry: CC(c1cc2ccccn2c1-c1cccc(C2CCCN2C)c1)n1nc(-c2cc(O)cc(F)c2)c2c(N)ncnc21 (mixture of isomers)
Result :: 10 to 1000 nM

###

target: PI3Kβ (Homo sapiens); experiment: In vitro determination of the PI3K enzyme inhibitory activity in the cell free assay (ADP-Glo Kinase Assay), PI3Kβ; conditions: ATP 100 μM, read-out: PI3K beta inhibition
assay.readout: IC50

Some entries whose results are on file:
compound	assay.readout	reading
CC(c1cc2ccccn2c1-c1ccn(CCN(C)C)n1)n1nc(-c2cc(O)cc(F)c2)c2c(N)ncnc21 (stereo not shown)	IC50	0.01 to 1 µM
CC(c1cc2ccccn2c1-c1cc(CN2CCN(C)CC2)ccn1)n1nc(-c2cc(O)cc(F)c2)c2c(N)ncnc21 (stereo not shown)	IC50	0.01 to 1 µM
CC(c1cc2ccccn2c1-c1ccn(CCN2CCN(C)CC2)n1)n1nc(-c2cc(O)cc(F)c2)c2c(N)ncnc21 (stereo not shown)	IC50	0.01 to 1 µM
COc1cc(F)cc(-c2nn(C(C)c3cc4ccccn4c3-c3ccccn3)c3ncnc(N)c23)c1 (stereo not shown)	IC50	> 1 µM
CC(c1cc2cc(Cl)ccn2c1-c1ccccn1)n1nc(-c2cc(O)cc(F)c2)c2c(N)ncnc21 (stereo not shown)	IC50	0.01 to 1 µM
CC(c1cc2ccc(C(F)(F)F)cn2c1-c1ccccn1)n1nc(-c2cc(O)cc(F)c2)c2c(N)ncnc21 (stereo not shown)	IC50	> 1 µM

Shift focus to the following entry.
Query :: I am curious: what IC50 value has been reported for CC(c1cc2ccccn2c1-c1ccccn1)n1nc(-c2cccnc2)c2c(N)ncnc21 (stereo not shown) ?
Result :: > 1 µM

###

molecular target: PI3Kγ (Homo sapiens); test: In vitro determination of the PI3K enzyme inhibitory activity in the cell free assay (ADP-Glo Kinase Assay), PI3Kγ; details: ATP 30 μM, read-out: PI3K gamma inhibition
Sequence (P48736 whole entry): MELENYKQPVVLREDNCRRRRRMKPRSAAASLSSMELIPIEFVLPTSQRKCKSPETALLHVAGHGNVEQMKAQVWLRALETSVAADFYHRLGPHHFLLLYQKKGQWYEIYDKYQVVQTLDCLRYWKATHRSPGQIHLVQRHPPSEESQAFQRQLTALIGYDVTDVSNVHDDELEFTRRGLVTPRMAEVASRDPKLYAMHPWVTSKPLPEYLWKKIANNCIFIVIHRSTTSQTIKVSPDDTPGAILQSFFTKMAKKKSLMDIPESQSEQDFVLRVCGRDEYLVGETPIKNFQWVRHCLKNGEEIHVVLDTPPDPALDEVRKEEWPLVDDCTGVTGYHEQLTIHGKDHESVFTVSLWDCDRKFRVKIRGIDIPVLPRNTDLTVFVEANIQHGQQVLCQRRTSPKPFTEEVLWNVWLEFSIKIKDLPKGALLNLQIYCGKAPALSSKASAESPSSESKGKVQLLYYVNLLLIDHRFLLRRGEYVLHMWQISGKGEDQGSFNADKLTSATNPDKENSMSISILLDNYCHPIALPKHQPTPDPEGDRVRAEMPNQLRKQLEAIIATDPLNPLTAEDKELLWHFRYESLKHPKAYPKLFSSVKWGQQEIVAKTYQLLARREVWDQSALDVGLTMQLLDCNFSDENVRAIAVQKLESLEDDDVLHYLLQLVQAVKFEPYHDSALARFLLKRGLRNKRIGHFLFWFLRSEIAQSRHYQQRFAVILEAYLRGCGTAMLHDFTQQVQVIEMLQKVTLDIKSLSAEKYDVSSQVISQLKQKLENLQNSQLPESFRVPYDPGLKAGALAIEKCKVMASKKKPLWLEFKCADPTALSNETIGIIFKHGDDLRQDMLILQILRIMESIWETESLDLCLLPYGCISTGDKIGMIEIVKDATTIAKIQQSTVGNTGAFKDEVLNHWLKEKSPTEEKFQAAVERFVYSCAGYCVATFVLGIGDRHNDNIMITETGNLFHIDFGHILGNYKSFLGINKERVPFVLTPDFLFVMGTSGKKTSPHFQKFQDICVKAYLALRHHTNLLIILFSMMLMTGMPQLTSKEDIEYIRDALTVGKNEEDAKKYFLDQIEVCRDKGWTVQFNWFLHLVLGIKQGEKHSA
assay.readout: IC50

Below: 8 compounds and their reported IC50.
compound	assay.readout	reading
CC(c1cc2ccccn2c1-c1ccncc1)n1nc(-c2cc(O)cc(F)c2)c2c(N)ncnc21 (racemic)	IC50	10 to 1000 nM
Nc1ncnc2c1ncn2Cc1cn2ccccc2c1-c1ccccc1	IC50	> 1000 nM
CC(c1cc2ccccn2c1-c1cncs1)n1nc(-c2cc(O)cc(F)c2)c2c(N)ncnc21 (stereo not drawn)	IC50	10 to 1000 nM
CC(c1cc2ccccn2c1N1CCCC1=O)n1nc(-c2cc(O)cc(F)c2)c2c(N)ncnc21 (stereo not drawn)	IC50	10 to 1000 nM
CC(Nc1ncnc(N)c1C#N)c1cc2ccccn2c1C1=CCNCC1 (stereo not drawn)	IC50	> 1000 nM
CC(c1c(C#N)c2ccccn2c1-c1cccc(CN(C)C)c1)n1nc(-c2cc(O)cc(F)c2)c2c(N)ncnc21 (stereo not drawn)	IC50	> 1000 nM
CC(c1cc2ccccn2c1-c1ccccn1)n1nc(-c2cccc(CO)c2)c2c(N)ncnc21 (stereo not drawn)	IC50	> 1000 nM
CC(c1cc2ccccn2c1-c1ccn(CCN2CCOCC2)c(=O)c1)n1nc(-c2cncc(O)c2)c2c(N)ncnc21 (stereo not drawn)	IC50	> 1000 nM

Query :: IC50 lookup needed for C[C@H](c1cc2ccccn2c1-c1ccc(CN(CCO)CCO)cn1)n1nc(-c2cc(O)cc(F)c2)c2c(N)ncnc21 (single isomer, unassigned) [Example 117a] , thanks.
Result :: > 1000 nM

Query :: Quick one: C[C@H](c1cc2ccccn2c1-c1ccc(CN2CCN(C)CC2)cn1)n1nc(-c2cc(O)cc(F)c2)c2c(N)ncnc21 (single isomer, unassigned) [Example 114b]
Result :: 10 to 1000 nM

Query :: Same question, CC(c1cc2ccccn2c1-c1ccccn1)n1nc(-c2cc(N)cc(F)c2)c2c(N)ncnc21 (stereo not drawn) this time
Result :: > 1000 nM

Query :: Try this compound next: C[C@H](c1cc2ccccn2c1-c1ccn(CCN2CCOCC2)c(=O)c1)n1nc(-c2cc(O)cc(F)c2)c2c(N)ncnc21 (single isomer, unassigned) [Example 121a]
Result :: > 1000 nM

Query :: Moving on to the next compound: Cc1ccccc1-c1c(CNc2ncnc(N)c2C#N)cc2ccccn12
Result :: > 1000 nM

Query :: For CC(Nc1ncnc(N)c1C#CCO)c1cc2ccccn2c1-c1ccccn1 (stereo not drawn) then?
Result :: > 1000 nM

Query :: Queued: CC(c1cc2ccccn2c1-c1ccc(CN2CCCC2)cn1)n1nc(-c2cc(O)cc(F)c2)c2c(N)ncnc21 (stereo not drawn)
Result :: > 1000 nM
